The values you see were collected from patent US20200024330A1.

# targetOfAssay: WT JR-FL gp120 (HIV-1 (isolate JR-FL))
# procedureDetails: ELISA on coated gp120; EC50 by nonlinear regression
Measured EC50, listed per entry for reference.

binder	EC50 / µg/mL
PGT-131 (antibody, V domains shown) VH: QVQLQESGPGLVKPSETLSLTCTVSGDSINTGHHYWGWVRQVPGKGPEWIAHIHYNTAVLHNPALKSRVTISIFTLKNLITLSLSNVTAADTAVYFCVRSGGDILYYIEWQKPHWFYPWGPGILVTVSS VL: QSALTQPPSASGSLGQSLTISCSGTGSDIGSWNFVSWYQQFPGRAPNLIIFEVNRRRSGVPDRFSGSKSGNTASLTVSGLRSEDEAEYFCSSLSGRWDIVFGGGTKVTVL	0.4
PGT-127 (antibody, V domains shown) VH: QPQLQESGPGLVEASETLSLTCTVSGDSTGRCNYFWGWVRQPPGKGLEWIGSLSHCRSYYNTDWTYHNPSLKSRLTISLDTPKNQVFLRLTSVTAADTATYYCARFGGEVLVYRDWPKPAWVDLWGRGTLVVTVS VL: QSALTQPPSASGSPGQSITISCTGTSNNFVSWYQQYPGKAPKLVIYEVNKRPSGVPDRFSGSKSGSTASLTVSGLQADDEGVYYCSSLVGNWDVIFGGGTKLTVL	0.1
PGT-126 (antibody, V domains shown) VH: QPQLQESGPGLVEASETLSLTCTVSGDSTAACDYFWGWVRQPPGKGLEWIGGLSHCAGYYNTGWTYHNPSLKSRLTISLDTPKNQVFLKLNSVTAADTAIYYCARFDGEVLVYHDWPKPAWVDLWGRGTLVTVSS VL: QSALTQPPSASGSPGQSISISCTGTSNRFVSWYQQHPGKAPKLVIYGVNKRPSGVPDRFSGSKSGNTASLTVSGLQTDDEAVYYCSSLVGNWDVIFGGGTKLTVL	0.1
